# Target Of Assay: T1, natriuretic peptide receptor-B (human)
# T1 chain: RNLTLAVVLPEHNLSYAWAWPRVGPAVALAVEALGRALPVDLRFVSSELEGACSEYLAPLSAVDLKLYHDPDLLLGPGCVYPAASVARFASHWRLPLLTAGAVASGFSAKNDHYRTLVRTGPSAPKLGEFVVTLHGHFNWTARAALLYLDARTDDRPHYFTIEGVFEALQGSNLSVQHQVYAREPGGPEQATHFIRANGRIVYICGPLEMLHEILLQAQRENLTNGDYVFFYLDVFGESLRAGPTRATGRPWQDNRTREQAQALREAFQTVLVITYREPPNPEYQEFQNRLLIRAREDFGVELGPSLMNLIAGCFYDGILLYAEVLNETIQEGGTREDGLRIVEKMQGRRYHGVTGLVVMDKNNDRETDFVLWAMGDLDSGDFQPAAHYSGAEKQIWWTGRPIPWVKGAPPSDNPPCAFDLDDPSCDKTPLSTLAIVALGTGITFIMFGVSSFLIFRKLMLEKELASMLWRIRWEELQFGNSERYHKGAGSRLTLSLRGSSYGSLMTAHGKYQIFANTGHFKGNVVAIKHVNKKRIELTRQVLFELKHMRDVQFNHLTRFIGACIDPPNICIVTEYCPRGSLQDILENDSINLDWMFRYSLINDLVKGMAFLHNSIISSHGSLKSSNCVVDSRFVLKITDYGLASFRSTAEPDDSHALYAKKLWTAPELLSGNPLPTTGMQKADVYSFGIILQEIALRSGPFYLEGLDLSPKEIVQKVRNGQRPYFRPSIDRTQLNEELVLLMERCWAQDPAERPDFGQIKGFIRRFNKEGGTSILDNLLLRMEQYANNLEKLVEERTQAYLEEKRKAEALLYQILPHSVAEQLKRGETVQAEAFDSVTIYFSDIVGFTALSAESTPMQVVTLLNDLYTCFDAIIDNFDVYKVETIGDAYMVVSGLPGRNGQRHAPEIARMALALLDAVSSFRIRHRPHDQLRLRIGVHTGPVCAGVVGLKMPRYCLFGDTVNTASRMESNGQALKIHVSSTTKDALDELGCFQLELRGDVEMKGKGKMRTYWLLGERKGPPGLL
# Method Description: cell-based or functional assay
Numbered stars: 1 amine (or outer) side, 2 acyl side, 3 side chain; on linkers, the order of the positions; unused ones are H or OH. Square brackets hold non-standard residues; d marks the D form. * marks the point of attachment. Sni = (S)-nipecotic acid, O=C([C@H]1CCCN([*:1])C1)[*:2]; Hyp = O=C(O)[C@@H]1C[C@@H](O)CN1; NMeF = CN[C@@H](Cc1ccccc1)C(=O)O; 4Pal = N[C@@H](Cc1ccncc1)C(=O)O; NMeL = CN[C@@H](CC(C)C)C(=O)O; dNle = CCCC[C@@H](N)C(=O)O; Octanoyl = CCCCCCCC(=O)*; pro = not defined here
Readout: EC50 group, cGMP in GTM-3 cells

Form: binder = Octanoyl-[pro]FGLPLDRI-NH2 (reading uncertain; also: printed as Occ-pro-Phe-Gly-Leu-Pro-Leu-Asp-Arg-Ile-NH2) [JAL-0836] ; EC50 group, cGMP in GTM-3 cells = ≤ 15 µM

Form: binder = Octanoyl-[Sni][4Pal]LL[Hyp][NMeL]DRI-NH2 (not fully specified (some residues); printed as Occ-Sni-Ppa-leu-Leu-Hyp-Nml-Asp-Arg-Ile-NH2) [JAL-1257] ; EC50 group, cGMP in GTM-3 cells = ≤ 15 µM

Form: binder = Octanoyl-[Sni][NMeF][dNle]LPLDRI-NH2 [JAL-1022] ; EC50 group, cGMP in GTM-3 cells = ≤ 5 µM

Source listed as patent US9187525B2.
